# experiment_description: APR_HepG2_MitoticArrest_72hr: Apredica 72-hour HepG2 Assay for Mitotic Arrest (AID 2282918)
# cond: high-content imaging, actives raise or lower the signal
Active and inactive are the calls of the source. How the source made its calls: active means hit-call score of the fitted dose curve at least 0.9, where 1 is the maximum; inactive means score below 0.9.
Outcome codes: active, inactive

1. COc1cc(OC)nc(NC(=O)NS(=O)(=O)c2cc(NC=O)ccc2C(=O)N(C)C)n1	inactive
2. O=C(O)COc1ccc(Cl)cc1Cl	inactive
3. O=C(NC(=O)c1c(F)cccc1F)Nc1ccc(OC(F)(F)C(F)OC(F)(F)F)c(Cl)c1 (configuration not stated)	inactive
4. CC(C)(C)C(O)/C(=C\c1ccc(Cl)cc1Cl)n1cncn1 (configuration not stated)	inactive
5. CNC(=O)Oc1cccc(N=CN(C)C)c1	inactive
6. CCCN(CCOc1c(Cl)cc(Cl)cc1Cl)C(=O)n1ccnc1	inactive
7. CCN(CC)C(=O)SCc1ccc(Cl)cc1	inactive
8. C[C@H]1[C@H](c2ccc(Cl)cc2)SC(=O)N1C(=O)NC1CCCCC1	inactive
9. COC(=O)c1ccccc1S(=O)(=O)NC(=O)Nc1nc(C)nc(OC)n1	inactive
10. O=C(Nc1ccccc1)Nc1cnns1	active
11. COc1nn(CSP(=S)(OC)OC)c(=O)s1	inactive
12. CCC(C)Nc1c([N+](=O)[O-])cc(C(C)(C)C)cc1[N+](=O)[O-] (configuration not stated)	inactive
13. CCC(C)(C)C(=O)OC1=C(c2ccc(Cl)cc2Cl)C(=O)OC12CCCCC2	inactive
14. COP(=S)(OC)Oc1ccc([N+](=O)[O-])cc1	inactive
15. OCCOc1ccccc1	inactive
16. O=C(O)CCCOc1ccc(Cl)cc1Cl	inactive
17. O=S1OCC2C(CO1)C1(Cl)C(Cl)=C(Cl)C2(Cl)C1(Cl)Cl (configuration not stated)	inactive
